Where do the numbers come from? From patent US20240239886A1.

# study-system: T1, recombinant protein consisting of the extracellular domain of human TREM2 fused to the His tag (human, UniProt Q9NZC2 19-174)
# T1 construct: also called His tagged hTREM2; His-TREM2
# T1 sequence: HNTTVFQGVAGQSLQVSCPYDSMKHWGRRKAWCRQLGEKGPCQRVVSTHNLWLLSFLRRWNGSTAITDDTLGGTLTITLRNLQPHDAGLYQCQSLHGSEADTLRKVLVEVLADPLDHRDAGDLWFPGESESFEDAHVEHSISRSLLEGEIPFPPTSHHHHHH
# protocol-notes: direct ELISA, coated His-TREM2 0.5 ug/mL, Ab stock 1 mg/mL
readout-label: OD at dilution 27000 (OD)
All answers are understood in OD, so give the number only.

binder	output-unit	OD at dilution 27000
80E3C7 (antibody, V domains shown, Biotin conjugated in sup ELISA, cell-based ELISA and flow cytometry; also called anti-TREM2 antibody (E3C7); TREM2 Ab E3C7) VH: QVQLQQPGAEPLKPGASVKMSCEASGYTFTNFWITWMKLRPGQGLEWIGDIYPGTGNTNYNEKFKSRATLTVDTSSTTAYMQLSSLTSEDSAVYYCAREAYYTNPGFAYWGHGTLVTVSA VL: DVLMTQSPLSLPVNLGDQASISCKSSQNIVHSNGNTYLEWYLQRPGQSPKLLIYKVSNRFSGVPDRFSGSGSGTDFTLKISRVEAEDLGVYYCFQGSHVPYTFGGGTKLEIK	OD	1.76
60H4A3 (antibody, V domains shown, Biotin conjugated in sup ELISA, cell-based ELISA and flow cytometry) VH: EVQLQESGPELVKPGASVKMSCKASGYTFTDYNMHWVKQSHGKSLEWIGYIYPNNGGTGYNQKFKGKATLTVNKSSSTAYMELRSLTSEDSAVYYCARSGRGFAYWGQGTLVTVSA VL: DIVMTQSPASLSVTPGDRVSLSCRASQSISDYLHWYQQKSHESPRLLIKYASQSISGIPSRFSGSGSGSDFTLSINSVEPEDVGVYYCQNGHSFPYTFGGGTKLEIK	OD	1.63
83E10B12 (antibody, V domains shown, Biotin conjugated in sup ELISA, cell-based ELISA and flow cytometry) VH: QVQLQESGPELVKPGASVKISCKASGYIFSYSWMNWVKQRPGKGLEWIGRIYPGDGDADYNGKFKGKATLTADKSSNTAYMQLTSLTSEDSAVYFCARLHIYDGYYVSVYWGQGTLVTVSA VL: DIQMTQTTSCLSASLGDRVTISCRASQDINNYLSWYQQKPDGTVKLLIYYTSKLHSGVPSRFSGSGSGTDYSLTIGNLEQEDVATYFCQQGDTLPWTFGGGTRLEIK	OD	0.843

The record that follows has no OD at dilution 27000 shown yet.
Entry under test: 61B11C9 (antibody, V domains shown, Biotin conjugated in sup ELISA, cell-based ELISA and flow cytometry) VH: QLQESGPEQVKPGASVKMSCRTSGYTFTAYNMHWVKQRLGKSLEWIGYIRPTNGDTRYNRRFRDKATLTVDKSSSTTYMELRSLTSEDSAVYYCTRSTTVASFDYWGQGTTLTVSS VL: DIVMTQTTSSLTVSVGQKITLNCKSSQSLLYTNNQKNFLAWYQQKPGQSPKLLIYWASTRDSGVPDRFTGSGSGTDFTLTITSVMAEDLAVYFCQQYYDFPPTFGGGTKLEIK . Its OD at dilution 27000 was 2.58
